The reported measurements were obtained from patent US20230302159A1.

METHOD_DESCRIPTION: pKa measurement by fluorescence intensity in the pH range 2.0-11.0 (plate reader)
Format: physicochemical
CONDITION_CONTEXT: 2 μM in 20 mM phosphate-buffered solution, pH 2.0-11.0; λex=725 nm, λem=785 nm
RECORDED_ENDPOINT: pKa
Answer with a number only.

# COMPOUND, pKa
rows = [
    ("CN(C)c1ccc(OC2=C(/C=C/C3=[N+](C)c4ccccc4C3(C)C)CCC/C2=C\\C=C2\\N(C)c3ccccc3C2(C)C)cc1.[Cl-] [CypH-1, reference compound]", 4.7),
]

Enquiry: What does the data say about its pKa? Entry: `CC(C)N(C)c1ccc(OC2=C(/C=C/C3=[N+](C(C)C)c4ccccc4C3(C)C)CCC/C2=C\C=C2\N(C(C)C)c3ccccc3C2(C)C)cc1.[I-]`
Return: 6

----------
METHOD_DESCRIPTION: Fluorescence properties of the CypH dyes at pH 5.0 and pH 7.5 (Table 2)
Assay type: physicochemical
CONDITION_CONTEXT: pH 7.5
RECORDED_ENDPOINT: FL Max (nm) pH 7.5
Kindly provide the numeric value in nm only, without the unit symbol.

Below: 4 molecules and their reported FL Max (nm) pH 7.5.
# MOLECULE, FL Max (nm) pH 7.5
data = [
    ("CC(C)CN1/C(=C/C=C2\\CCCC(/C=C/C3=[N+](CC(C)C)c4ccccc4C3(C)C)=C2Oc2ccc(N(C)C)cc2)C(C)(C)c2ccccc21.[I-] [CypH-19]", 784),
    ("CCN1/C(=C/C=C2\\CCCC(/C=C/C3=[N+](CC)c4ccccc4C3(C)C)=C2Oc2ccc(N(C)C)cc2)C(C)(C)c2ccccc21 [CypH-2]", 786),
    ("CC(C)N(C)c1ccc(OC2=C(/C=C/C3=[N+](CCCS(=O)(=O)[O-])c4ccccc4C3(C)C)CCC/C2=C\\C=C2\\N(CCCS(=O)(=O)[O-])c3ccccc3C2(C)C)cc1.[Na+] [CypH-9]", 789),
    ("CCCN1/C(=C/C=C2\\CCCC(/C=C/C3=[N+](CCC)c4ccccc4C3(C)C)=C2Oc2ccc(N(C)C)cc2)C(C)(C)c2ccccc21.[I-] [CypH-15]", 786),
]

Enquiry: Please give the measured FL Max (nm) pH 7.5 for this molecule: CCN1/C(=C/C=C2\CCCC(/C=C/C3=[N+](CC)c4ccccc4C3(C)C)=C2Oc2ccc(N(C)C(C)C)cc2)C(C)(C)c2ccccc21 [CypH-10]
Return: 781

Enquiry: Entry CN(C)c1ccc(OC2=C(/C=C/C3=[N+](C)c4ccccc4C3(C)C)CC/C2=C\C=C2\N(C)c3ccccc3C2(C)C)cc1.[Cl-] [CypH-4] : reported FL Max (nm) pH 7.5 = ?
Return: 790

----------
METHOD_DESCRIPTION: Optical properties of the CypH dyes: absorbance maximum and extinction coefficient in EtOH (Table 1)
Type: physicochemical
CONDITION_CONTEXT: at absorbance maximum
RECORDED_ENDPOINT: Ex Coeff (M^−1cm^−1) @ Abs Max

# COMPOUND, Ex Coeff (M^−1cm^−1) @ Abs Max
records = [
    ("CCN1/C(=C/C=C2\\CCCC(/C=C/C3=[N+](CC)c4ccccc4C3(C)C)=C2Oc2ccc(N(C)C)cc2)C(C)(C)c2ccccc21", "139,100 M^−1cm^−1"),
]

Enquiry: Would you kindly share the measured Ex Coeff (M^−1cm^−1) @ Abs Max for `CC(C)N(C)c1ccc(OC2=C(/C=C/C3=[N+](C)c4ccccc4C3(C)C)CCC/C2=C\C=C2\N(C)c3ccccc3C2(C)C)cc1` ?
Return: 255,600 M^−1cm^−1

Enquiry: Item `CCN(C)c1ccc(OC2=C(/C=C/C3=[N+](CC(C)C)c4ccccc4C3(C)C)CCC/C2=C\C=C2\N(CC(C)C)c3ccccc3C2(C)C)cc1.[I-]` has what recorded Ex Coeff (M^−1cm^−1) @ Abs Max?
Return: 218,600 M^−1cm^−1

Enquiry: # input compound: `CCN(C)c1ccc(OC2=C(/C=C/C3=[N+](C)c4ccccc4C3(C)C)CCC/C2=C\C=C2\N(C)c3ccccc3C2(C)C)cc1` ; wanted: its Ex Coeff (M^−1cm^−1) @ Abs Max
Return: 134,000 M^−1cm^−1

Enquiry: Look at this compound and give its reported Ex Coeff (M^−1cm^−1) @ Abs Max. `CC(C)N(C)c1ccc(OC2=C(/C=C/C3=[N+](CCCS(=O)(=O)[O-])c4ccccc4C3(C)C)CCC/C2=C\C=C2\N(CCCS(=O)(=O)[O-])c3ccccc3C2(C)C)cc1.[Na+]`
Return: 176,300 M^−1cm^−1

Enquiry: Can you look up the measured Ex Coeff (M^−1cm^−1) @ Abs Max of `CCN(C)c1ccc(OC2=C(/C=C/C3=[N+](CCCS(=O)(=O)[O-])c4ccccc4C3(C)C)CCC/C2=C\C=C2\N(CCCS(=O)(=O)[O-])c3ccccc3C2(C)C)cc1.[Na+]` for me?
Return: 150,400 M^−1cm^−1
